Cited source for all entries: patent US11723890B2

measurement notes: Example 3: plasma pharmacokinetics of two sequential doses
Format: in vivo, human
setup conditions: male, human, po, 2400 mg, healthy males, 2400 mg oral, Day 1, N 11, read-out: Tmax, Median
recorded metric: Tmax (h)
Report the value in h with no unit label.

Tmax reading for CC(C)(C[C@H](N)C(=O)O)C(F)F : 1

----------
measurement notes: Example 3: plasma pharmacokinetics of two sequential doses
Format: in vivo, human
setup conditions: male, human, po, 2400 mg, healthy males, 2400 mg oral, second dose, Day 3, N 11, read-out: T1/2, Geometric mean (converted)
recorded metric: half-life (h)
Report the value in h with no unit label.

half-life reading for CC(C)(C[C@H](N)C(=O)O)C(F)F : 15.3
